This collection of values is drawn from ChEMBL document CHEMBL3407493.

ASSAY_NAME: Antioxidant activity assessed as DPPH radical scavenging activity
Type: physicochemical

{"COMPOUND": "Oc1cc(O)c2c(c1)O[C@H](c1ccc(O)c(O)c1)[C@H](O)[C@H]2c1c(O)cc(O)c2c1O[C@H](c1ccc(O)c(O)c1)[C@H](O)C2", "IC50 / µg/mL": 1.4}
{"COMPOUND": "Oc1cc(O)c2c(c1)O[C@H](c1ccc(O)c(O)c1)[C@H](O)C2 [(-)-EPICATECHIN]", "IC50 / µg/mL": 0.62}
{"COMPOUND": "Oc1cc(O)c2c(c1)O[C@H](c1ccc(O)c(O)c1)[C@H](O)[C@H]2c1c(O)cc2c(c1O)C[C@@H](O)[C@@H](c1ccc(O)c(O)c1)O2", "IC50 / µg/mL": 2.3}

* * *

Below, each entry is listed alongside its reported log10 LC50.
ASSAY_NAME: Toxicity in Artemia salina Linn.
Format: organism-based
ASSAY_SETUP: in vivo
MEASURE: log10 LC50 (log10 of the value in µg/mL)

{"COMPOUND": "COc1cc(C)c2oc(=O)c(C)cc2c1C(C)C", "log10 LC50": 1.38}
{"COMPOUND": "CC1=Cc2c(c(C)cc(O)c2C(C)C)C(=O)C1=O", "log10 LC50": 1.81}
{"COMPOUND": "Cc1cc2c(C(C)C)c(O)cc(C)c2oc1=O", "log10 LC50": -0.21}
{"COMPOUND": "CC1=C2OC[C@@H](C)c3c(O)cc(C)c(c32)C(=O)C1=O", "log10 LC50": 1.71}
{"COMPOUND": "CC1=Cc2c(C(C)C)ccc(C)c2C(=O)C1=O", "log10 LC50": 0.32}
{"COMPOUND": "Cc1c2c3c(ccc(C)c3oc1=O)C(C)CO2 (stereo unspecified)", "log10 LC50": 2.27}

* * *

Test system: Liver microsome
ASSAY_NAME: Antioxidant activity in rat liver microsomes assessed as inhibition of NADPH-dependent lipid peroxidation
Assay type: functional
Entries annotated with measured log10(IC50)
MEASURE: log10(IC50) (log10 of the value in µg/mL)

{"COMPOUND": "Oc1cc(O)c2c(c1)O[C@H](c1ccc(O)c(O)c1)[C@H](O)C2 [(-)-EPICATECHIN]", "log10(IC50)": 1.46}
{"COMPOUND": "Oc1cc(O)c2c(c1)O[C@H](c1ccc(O)c(O)c1)[C@H](O)[C@H]2c1c(O)cc2c(c1O)C[C@@H](O)[C@@H](c1ccc(O)c(O)c1)O2", "log10(IC50)": 1.08}
{"COMPOUND": "OC[C@H]1O[C@@H](O[C@H]2[C@H]3c4c(O)cc(O)cc4O[C@]2(c2ccc(O)c(O)c2)Oc2cc(O)c4c(c23)O[C@H](c2ccc(O)c(O)c2)[C@H](O)C4)[C@H](O)[C@@H](O)[C@H]1O", "log10(IC50)": 1.26}
{"COMPOUND": "OC[C@H]1O[C@@H](O[C@@H]2[C@@H]3c4c(O)cc(O)cc4O[C@]2(c2ccc(O)c(O)c2)Oc2cc(O)c4c(c23)O[C@H](c2ccc(O)c(O)c2)[C@H](O)[C@H]4c2c(O)cc(O)c3c2O[C@H](c2ccc(O)c(O)c2)[C@H](O)C3)[C@H](O)[C@@H](O)[C@H]1O", "log10(IC50)": 1.56}
{"COMPOUND": "Oc1cc(O)c2c(c1)O[C@]1(c3ccc(O)c(O)c3)Oc3cc(O)c4c(c3[C@H]2[C@@H]1O[C@@H]1OC[C@@H](O)[C@H](O)[C@H]1O)O[C@H](c1ccc(O)c(O)c1)[C@H](O)C4", "log10(IC50)": 1.32}
{"COMPOUND": "Oc1cc(O)c2c(c1)O[C@]1(c3ccc(O)c(O)c3)Oc3cc(O)c4c(c3[C@@H]2[C@H]1O[C@@H]1OC[C@@H](O)[C@H](O)[C@H]1O)O[C@H](c1ccc(O)c(O)c1)[C@H](O)[C@H]4c1c(O)cc(O)c2c1O[C@H](c1ccc(O)c(O)c1)[C@H](O)C2", "log10(IC50)": 1.45}
{"COMPOUND": "Oc1cc(O)c2c(c1)O[C@H](c1ccc(O)c(O)c1)[C@H](O)[C@H]2c1c(O)cc(O)c2c1O[C@H](c1ccc(O)c(O)c1)[C@H](O)C2", "log10(IC50)": 1.08}
{"COMPOUND": "Oc1cc(O)c2c(c1)O[C@H](c1ccc(O)c(O)c1)[C@H](O)[C@H]2c1c(O)cc(O)c2c1O[C@H](c1ccc(O)c(O)c1)[C@H](O)[C@H]2c1c(O)cc(O)c2c1O[C@H](c1ccc(O)c(O)c1)[C@H](O)C2", "log10(IC50)": 1.83}
{"COMPOUND": "Cc1c(C)c2c(c(C)c1O)CCC(C)(CCCC(C)CCCC(C)CCCC(C)C)O2 (racemic)", "log10(IC50)": 0.75}
{"COMPOUND": "Oc1cc(O)c2c(c1)O[C@H](c1ccc(O)c(O)c1)[C@H](O)[C@H]2c1c(O)cc(O)c2c1O[C@H](c1ccc(O)c(O)c1)[C@H](O)[C@H]2c1c(O)cc(O)c2c1O[C@H](c1ccc(O)c(O)c1)[C@H](O)[C@H]2c1c(O)cc(O)c2c1O[C@H](c1ccc(O)c(O)c1)[C@H](O)C2", "log10(IC50)": 1.40}
